Data origin: the kinase profiling compilation of Christmann-Franck et al. (2016)

- TGT: GSG2 (human)
- MEASUREMENT NOTES: radiometric filter-binding kinase assay, Kinase HotSpot
- PARTICULARS: compound 0.5 µM; ATP 10 µM
Item-by-item account of residual activity
ATTRIBUTE MEASURED: residual activity

# CHEMICAL STRUCTURE, REPORTED MEASUREMENT
data = [
    ("COc1cc2c(N3CCN(C(=O)Nc4ccc(OC(C)C)cc4)CC3)ncnc2cc1OCCCN1CCCCC1", "99.5%"),
    ("O=c1c2ccccc2[nH]c(=S)n1CCN1CCC(=C(c2ccc(F)cc2)c2ccc(F)cc2)CC1", "95.4%"),
    ("O=C(O)c1ccc2c3c1cccc3c(=O)n1c3ccccc3nc21", "90.9%"),
    ("Cc1cc(Nc2nc(-c3ccccc3)nc3ccccc23)n[nH]1", "90.5%"),
]

====

Item-by-item account of residual activity
- TGT: PDGFRA (human) (UniProt P16234)
- Sequence (P16234 whole entry, looked up): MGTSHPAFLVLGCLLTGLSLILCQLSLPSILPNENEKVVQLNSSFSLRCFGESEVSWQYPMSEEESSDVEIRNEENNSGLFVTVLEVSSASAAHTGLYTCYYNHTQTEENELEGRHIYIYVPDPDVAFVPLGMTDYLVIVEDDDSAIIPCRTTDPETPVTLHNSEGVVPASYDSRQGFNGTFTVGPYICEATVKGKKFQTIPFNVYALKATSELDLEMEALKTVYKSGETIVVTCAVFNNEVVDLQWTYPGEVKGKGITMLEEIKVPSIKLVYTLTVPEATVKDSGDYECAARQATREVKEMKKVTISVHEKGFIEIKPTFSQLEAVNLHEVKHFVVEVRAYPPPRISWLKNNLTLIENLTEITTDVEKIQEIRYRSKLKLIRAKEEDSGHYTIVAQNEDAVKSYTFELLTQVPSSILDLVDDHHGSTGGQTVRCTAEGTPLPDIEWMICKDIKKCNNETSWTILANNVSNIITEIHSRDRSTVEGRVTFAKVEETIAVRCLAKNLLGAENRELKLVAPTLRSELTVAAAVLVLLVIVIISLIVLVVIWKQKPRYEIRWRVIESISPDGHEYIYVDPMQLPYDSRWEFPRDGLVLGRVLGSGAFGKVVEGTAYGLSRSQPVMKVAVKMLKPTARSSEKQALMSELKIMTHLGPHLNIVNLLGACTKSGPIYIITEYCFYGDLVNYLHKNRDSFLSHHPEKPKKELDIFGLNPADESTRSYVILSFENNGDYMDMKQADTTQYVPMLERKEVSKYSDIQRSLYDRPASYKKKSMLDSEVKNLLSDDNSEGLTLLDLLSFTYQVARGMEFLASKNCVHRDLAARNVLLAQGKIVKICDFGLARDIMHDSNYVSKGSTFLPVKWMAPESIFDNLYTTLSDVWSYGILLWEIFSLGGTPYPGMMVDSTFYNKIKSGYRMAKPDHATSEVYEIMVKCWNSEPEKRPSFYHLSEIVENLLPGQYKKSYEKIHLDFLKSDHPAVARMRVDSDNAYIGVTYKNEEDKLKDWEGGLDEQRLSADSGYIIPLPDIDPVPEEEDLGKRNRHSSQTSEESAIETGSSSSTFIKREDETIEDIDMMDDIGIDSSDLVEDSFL
- MEASUREMENT NOTES: radiometric filter-binding kinase assay, Kinase HotSpot
- PARTICULARS: compound 0.5 µM; ATP 10 µM

# CHEMICAL STRUCTURE, residual activity
data = [
    ("CCOc1cc2ncnc(Nc3cccc(Br)c3)c2cc1OCC", "84.7%"),
    ("Nc1ncnc2c1cnn2-c1ccccc1", "103%"),
    ("O=c1c(-c2ccc(F)cc2)c(-c2ccncc2)[nH]n1-c1ccc(Cl)cc1", "103%"),
    ("N/C(=N\\N=C/c1ccc(-c2cccc([N+](=O)[O-])c2)o1)N[N+](=O)[O-]", "93.2%"),
    ("O=C(c1ccccc1)c1ccc(N2CCOCC2)cc1O", "91.9%"),
    ("N#C/C(=C1/Nc2ccccc2S1)c1ccnc(NCCc2cccnc2)n1", "99%"),
    ("COc1cc2c(cc1OC)-c1[nH]nc(Nc3cccc(F)c3)c1C2", "33.4%"),
    ("O=C(O)c1ccc2c3c1cccc3c(=O)n1c3ccccc3nc21", "94.4%"),
    ("O=S(=O)(NCCNC/C=C/c1ccc(Br)cc1)c1cccc2cnccc12", "98.8%"),
    ("COc1cc2c(Nc3ccc(Br)cc3F)ncnc2cc1OCC1CCN(C)CC1", "28.6%"),
    ("O=C1NC(=O)c2cc(Nc3ccc(F)cc3)c(Nc3ccc(F)cc3)cc21", "101%"),
    ("c1ccc(-c2cnc(Nc3ccc(OCCN4CCCC4)cc3)s2)cc1", "57.4%"),
    ("O=C1NC(=O)c2c1c1c3ccccc3[nH]c1c1[nH]c3cc(Br)ccc3c21", "97.6%"),
    ("N#Cc1c(NC(=O)c2cccc3ccccc23)sc2c1CCCC2", "101%"),
    ("COc1cc2ncnc(Nc3ccc(O)c(Br)c3)c2cc1OC", "88.9%"),
    ("N#CCCc1ccc2c(c1)-c1[nH]c3ccc([N+](=O)[O-])cc3c1CC(=O)N2", "87.4%"),
]

====

- TGT: PRKCI (human)
- MEASUREMENT NOTES: radiometric filter-binding kinase assay, Kinase HotSpot
- PARTICULARS: compound 0.5 µM; ATP 10 µM
ATTRIBUTE MEASURED: residual activity (%)

# CHEMICAL STRUCTURE, REPORTED MEASUREMENT
data = [
    ("COc1cc2ncnc(Nc3ccc(O)c(Br)c3)c2cc1OC", 94),
    ("FC(F)(F)c1ccc(/C=C/c2nc(COc3ccc(CCCCn4ccnn4)cc3)co2)cc1", 92.6),
    ("O=C1NC(=O)c2c1c1c3ccccc3[nH]c1c1[nH]c3cc(Br)ccc3c21", 96.2),
    ("CCOc1cc2ncnc(Nc3cccc(Br)c3)c2cc1OCC", 100),
    ("Cc1cc(Nc2nc(-c3ccccc3)nc3ccccc23)n[nH]1", 82.6),
    ("COc1cc2c(N3CCN(C(=O)Nc4ccc(OC(C)C)cc4)CC3)ncnc2cc1OCCCN1CCCCC1", 96.2),
    ("c1ccc(-c2cnc(Nc3ccc(OCCN4CCCC4)cc3)s2)cc1", 93.1),
    ("O=c1c(-c2ccc(F)cc2)c(-c2ccncc2)[nH]n1-c1ccc(Cl)cc1", 96.2),
    ("N#Cc1c(NC(=O)c2cccc3ccccc23)sc2c1CCCC2", 95.9),
    ("O=c1c2ccccc2[nH]c(=S)n1CCN1CCC(=C(c2ccc(F)cc2)c2ccc(F)cc2)CC1", 96.3),
    ("O=C(O)c1ccc2c3c1cccc3c(=O)n1c3ccccc3nc21", 94.6),
    ("O=S(=O)(NCCNC/C=C/c1ccc(Br)cc1)c1cccc2cnccc12", 88.4),
    ("O=c1[nH]c2ccccc2n1C1CCN(Cc2ccc(-c3nc4cc5[nH]cnc5cc4nc3-c3ccccc3)cc2)CC1", 97),
    ("COc1cc2c(cc1OC)-c1[nH]nc(Nc3cccc(F)c3)c1C2", 95.5),
    ("COc1cc2c(Nc3ccc(Br)cc3F)ncnc2cc1OCC1CCN(C)CC1", 88.1),
    ("O=C(c1ccccc1)c1ccc(N2CCOCC2)cc1O", 98.3),
    ("N#CCCc1ccc2c(c1)-c1[nH]c3ccc([N+](=O)[O-])cc3c1CC(=O)N2", 65.3),
    ("N#C/C(=C1/Nc2ccccc2S1)c1ccnc(NCCc2cccnc2)n1", 94.4),
    ("O=c1cc(N2CCOCC2)oc2c(-c3ccccc3)cccc12", 99.5),
    ("O=C1NC(=O)c2cc(Nc3ccc(F)cc3)c(Nc3ccc(F)cc3)cc21", 89),
    ("Cn1cc(/C=C2\\C(=O)Nc3ccc(S(N)(=O)=O)cc32)c2ccccc21", 99.6),
    ("CCCCc1c(-c2ccc(O)cc2)[nH]c2nccnc12", 99.4),
    ("N/C(=N\\N=C/c1ccc(-c2cccc([N+](=O)[O-])c2)o1)N[N+](=O)[O-]", 92.3),
    ("CCc1nc(-c2ccc(OC)cc2)[nH]c1-c1ccncc1", 101),
    ("COc1cccc(-c2cc(=O)c3ccccc3o2)c1N", 97.3),
    ("Nc1ncnc2c1cnn2-c1ccccc1", 97.3),
]
